Measured melting point by item

Some solved entries appear below for comparison.
>  <molecule>
COc1ccc(CN(C)CCc2ccc(NC(=O)c3cccc4c(=O)c5cccc(OC)c5sc34)cc2)cc1OC

>  <melting point>
151 °C

$$$$
>  <molecule>
CC(=C(c1ccc(N(C)C)cc1)c1ccc(N(C)C)cc1)P(C(C)(C)C)C(C)(C)C

>  <melting point>
133 to 135 °C

$$$$
>  <molecule>
CC1CC2C3CCC4=CC(=O)C=CC4(C)C3=CCC2(C)C1C(=O)CN1CCN(c2cc(N3CCC4(CC3)OCCO4)nc(N3CCC4(CC3)OCCO4)n2)CC1 (centres undefined)

>  <melting point>
156 to 174 °C

$$$$
>  <molecule>
CC(C)(C)c1cc(OCc2cccc(C#N)c2)cc(C(C)(C)C)c1O

>  <melting point>
78 to 81 °C

$$$$
>  <molecule>
C=Cc1ccc2c(c1)C[C@H](C(=O)N1CCC[C@H](C)C1)N2c1cccnn1

>  <melting point>
206 to 209 °C

$$$$

What does the data say about its melting point? Entry: `O=C1c2c(-c3ccccc3)cc(CO)nc2OCCN1Cc1cc(C(F)(F)F)cc(C(F)(F)F)c1`
199 to 201 °C

What does the data say about its melting point? Entry: `CCCCc1nc2c(N)nc3ccccc3c2n1CCOCC#Cc1ccccc1`
133 to 140 °C

What does the data say about its melting point? Entry: CCOC(=O)CN(C(=O)N1CCN(c2cc(C)cc(C)c2)CC1)c1cc(C(C)O)c(C)nc1OC (centres undefined)
68 to 70 °C

What does the data say about its melting point? Entry: `COc1ccc(-c2cc3ccc(OC)cc3c(=S)[nH]2)cc1`
188 to 190 °C

What does the data say about its melting point? Entry: CCOC(=O)C1=C(C)NC(C(OCC)OCC)=C(C(=O)OCC)C1c1ccccc1OC (centres undefined)
105 to 107 °C

What does the data say about its melting point? Entry: `Cc1c(-c2ccc(-c3ccccc3F)cc2)nc2ccc(F)cc2c1C(=O)O`
315 to 317 °C

What does the data say about its melting point? Entry: `N#Cc1cccc(C2=Nc3ccc(C#CC4(O)CCCCC4)cc3NC(=O)C2)c1`
196 °C

What does the data say about its melting point? Entry: `COC(=O)c1sc2c(C(F)(F)F)cccc2c1C1CCN(C(C)=O)CC1`
155 °C

What does the data say about its melting point? Entry: `O=C(Cl)c1cn(CCCCl)c(=O)c2cc(Cl)ccc12`
125 °C

What does the data say about its melting point? Entry: COC(=O)CCNCC1CC2c3cccc4[nH]cc(c34)CC2N(C)C1 (centres undefined)
130 to 132 °C

What does the data say about its melting point? Entry: `CCCc1c2c(c3oc(C(=O)O)cc(=O)c3c1O)CCCC2`
226 to 227 °C

What does the data say about its melting point? Entry: `CNC(=O)c1ccc(N(CC(=O)OC(C)(C)C)C(=O)OC(C)(C)C)cc1`
164 to 166 °C

What does the data say about its melting point? Entry: `COc1ccc(N2CCN(c3ccc(-n4cnnc4SC)cc3)CC2)cc1`
180 °C

What does the data say about its melting point? Entry: `COc1ccc(CNC(=O)c2cc3c(=O)n(C[C@H]4CC[C@H](C(=O)O)CC4)cnc3cn2)cc1`
232 to 233 °C

What does the data say about its melting point? Entry: CCON=C(CC)C1=C(O)CC(c2ccc(NS(C)(=O)=O)cc2)CC1=O (centres undefined)
115 to 116 °C

What does the data say about its melting point? Entry: CC(Nc1ccc(Cl)c(Cl)c1)C(=O)O (centres undefined)
148 to 149 °C

What does the data say about its melting point? Entry: COc1ccc2c3c1OC1C4(CCC5(F)C(C2)N(C(=O)C2CC2)CCC315)OCCO4 (centres undefined)
191 to 193 °C

What does the data say about its melting point? Entry: `C#Cc1cccc(N2C(=O)c3ccccc3C2=O)c1`
197 to 198 °C

What does the data say about its melting point? Entry: CC(C)C1=C(C#N)C(c2cccc(Cl)c2Cl)c2c[nH]nc2N1 (centres undefined)
> 250 °C
